assay: amyloid nucleation score (Sup35N fusion, yeast selection) (log enrichment); library NNK1; higher = more nucleation; inactive = no reads after selection;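 note: zero at mode of non-aggregating sequences after 7 days selection at 30°C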
# if value of amyloid nucleation score reaches 1, tag Satisfied; if it stays below, tag Not satisfied

Look over these answered cases.
VEGRVSEFGRLHMSCYTGLR Not satisfied
HKNEYSGFKRSKLLYRARMR Not satisfied
DGSGRGRALTVTIDWAVQLV Not satisfied
IAYVQFAPRKY Not satisfied
TIAKST Not satisfied
MRIIQCRRLFKVCCCFSVCL Satisfied
KHRLGQSMVSVRHYRFWGRI Not satisfied
SPSKLGSE Not satisfied

Answer whether amyloid nucleation score of YGSKICSIAFCPLLHVQNHP is greater than or equal to 1. Satisfied

Answer whether amyloid nucleation score of LLLLIN is greater than or equal to 1. Not satisfied

Answer whether amyloid nucleation score of LEFVYNH is greater than or equal to 1. Satisfied

* * *

assay: amyloid nucleation score (Sup35N fusion, yeast selection) (log enrichment); library NNK1; higher = more nucleation; inactive = no reads after selection
PARAMETER: amyloid nucleation score
Keep the answer to the number alone.

Take a look at these entries with their results.
GHRVAGCFSMSGVG 1.25
NVSFWFYPLSAFSRPFFGLH 2.74
SMMYKVSFGGGVFVLKLLVK 0.266

Entry VHWRYWFVLISLDQRIGKA — recorded amyloid nucleation score = 0.199

Entry NFPFMFKCSPGNVHLVDIR — recorded amyloid nucleation score = -0.535

Entry VSTILYFDFVSVLPSALIEK — recorded amyloid nucleation score = 3.23

Entry PNVFFFLISMIFSDFLVGSG — recorded amyloid nucleation score = 0.192

Entry YNYICTDSWILSTMVDFVHL — recorded amyloid nucleation score = -0.442

Entry SYRGWADADNLVLYPQNASV — recorded amyloid nucleation score = 0.021

Entry AVQYNKVKERTLSQPWTHHV — recorded amyloid nucleation score = -1.86

Entry FCRDVSVYLDYLDGPRSGWS — recorded amyloid nucleation score = -0.245

Entry GICCYNFGRCKMRASPGLCG — recorded amyloid nucleation score = -0.999

Entry QWCDKVFL — recorded amyloid nucleation score = -0.687

Entry TTRSSGIFSDEGKQACSDRG — recorded amyloid nucleation score = 0.091

Entry SRRWNNDLGLFSRERKTTLV — recorded amyloid nucleation score = -1.06

* * *

experiment: amyloid nucleation score (Sup35N fusion, yeast selection) (log enrichment); library NNK3; higher = more nucleation; inactive = no reads after selection
PARAMETER: amyloid nucleation score

Take a look at these entries with their results.
TRVSWTFGINTSSGPSALHL 0.995
KNVSEEVGLSLVPSEGKSHL inactive
SDFRVTPLLYE inactive
FQCMFYFIFSRCQHLVYCHF inactive
LHLTDLYYGF inactive

Entry LNTDESWGFMCLTKFE — recorded amyloid nucleation score = inactive

Entry MVLYGAHECRDDKSVSLTRC — recorded amyloid nucleation score = inactive

Entry FSCMTADSNSGIVRVR — recorded amyloid nucleation score = inactive

Entry GCVMVKSSLMFSLLR — recorded amyloid nucleation score = -0.883

* * *

assay: amyloid nucleation score (Sup35N fusion, yeast selection) (log enrichment); library NNK2; higher = more nucleation; inactive = no reads after selection
# if value of amyloid nucleation score reaches 0.2, tag Y; if it stays below, tag N

Look over these answered cases.
EPTFWPRW Y
ALVCLMKSSFCTCEHLYDVR Y
RAYPNLENFLLWRMSNSYLC N

Answer whether amyloid nucleation score of GVNKVT is greater than or equal to 0.2. N

Answer whether amyloid nucleation score of GLQYQYSGLWVR is greater than or equal to 0.2. Y

* * *

assay: amyloid nucleation score (Sup35N fusion, yeast selection) (log enrichment); library NNK2; higher = more nucleation; inactive = no reads after selection
PARAMETER: amyloid nucleation score
Keep the answer to the number alone.

Entry GTVLMRFGGCLFFVMSRQNC — recorded amyloid nucleation score = 1.89

Entry VRGLFVLTVLEVS — recorded amyloid nucleation score = -0.161

Entry SVILILSVGLLTIYLSRNG — recorded amyloid nucleation score = 2.76

Entry TGLDIGLGWLYMYRGATLAI — recorded amyloid nucleation score = 0.542

Entry FEIGGHIDCETGVCCGVAVM — recorded amyloid nucleation score = 4.56

Entry RGSFYNGRS — recorded amyloid nucleation score = 0.049

Entry SLATSAWVVYLWFVVRDIVV — recorded amyloid nucleation score = 0.388

Entry LTSSRRF — recorded amyloid nucleation score = 5.72

Entry AGFWEDEVFRV — recorded amyloid nucleation score = -0.714

* * *

experiment: amyloid nucleation score (Sup35N fusion, yeast selection) (log enrichment); library NNK1; higher = more nucleation; inactive = no reads after selection
Class boundaries, taken from values of amyloid nucleation score, are as follows: category 1: < 0.004; category 2: ≥ 0.004 and < 0.7; category 3: ≥ 0.7

MISDFSNVIMLVCIPCFLYV category 3

Which category fits this record: CCYWMASALENRSRRIRLHV category 1

Which category fits this record: SMVSFII category 1

Which category fits this record: PTCLSWGGVMRRDL category 2

Which category fits this record: YWCRSSLFRFMGLRYESRMY category 2

Which category fits this record: ALFGERPCCRC category 2

Which category fits this record: MKVRISEILEILKVSFKNFP category 1

Which category fits this record: SLVLSYRVASNIKNPMTLDY category 3

Which category fits this record: NQTNIMCSPNIICSVSGQSG category 3

Which category fits this record: HLRRYMDRYRRGQYGFSYFW category 3

Which category fits this record: QLGWYLFGM category 3

Which category fits this record: NVMQKNLFGSCIILLSWSLS category 2

Which category fits this record: FCFGGNVGRYLMVRPCVFGY category 2

Which category fits this record: LYSIVVKYCYQYLSRACNYN category 2

Which category fits this record: YLSHWQFAFIHLNANILL category 2

Which category fits this record: WAVRIVHMRVFFGLPVDW category 1

Which category fits this record: ATRSSSFRMHDKNLCLTVDM category 3

Which category fits this record: YFRGNVNAWLLWSEICQVPF category 2

Which category fits this record: FYTVSCLVCLGL category 3

Which category fits this record: DLIYTDGLV category 1

Which category fits this record: SRFDMLSRALRCMK category 3

Which category fits this record: CAVHYKLCDLYHT category 2

Which category fits this record: QMVGESDECRCSLYSGQWKG category 1

Which category fits this record: LGVKFVQDGTINKGHLKR category 1

Which category fits this record: MASTMPC category 1

* * *

Overview of reported amyloid nucleation score across a group of sequences:
test: amyloid nucleation score (Sup35N fusion, yeast selection) (log enrichment); library NNK2; higher = more nucleation; inactive = no reads after selection
Keep the answer to the number alone.

Take a look at these entries with their results.
KACWCLYQGLTLSAQVQLWP 1.26
DSYMKRLWCRAARDRTESVW 0.159
RISKRAHECLIMQG -0.108

Entry FDHHRGGNTLMQGDLLVMDF — recorded amyloid nucleation score = 0.925

Entry YQKCTRIFQILCGSACLKTR — recorded amyloid nucleation score = -0.649

Entry CFRKFRMEEPLGIRFSHLDT — recorded amyloid nucleation score = -0.345

Entry FKVTTFYHGLSSMKDVASSY — recorded amyloid nucleation score = -0.95

Entry SHLCQVLVVLGGASTV — recorded amyloid nucleation score = 6.41

Entry YNGMAHGCHVGASSRRLE — recorded amyloid nucleation score = 0.117

* * *

Overview of reported amyloid nucleation score across a group of substances:
assay: amyloid nucleation score (Sup35N fusion, yeast selection) (log enrichment); library NNK2; higher = more nucleation; inactive = no reads after selection
Keep the answer to the number alone.

Take a look at these entries with their results.
SGRCNSN -0.63
YMSATVRCIYSRLY 3.05
GRILNFMSHDWGDHMICGKK 0.65
ANRKRVK 0.223
LNGYNYATCVLSPFFNE -0.497
GQYLLSTIIVFGCSMAGFAA 2.52
VLDSINVSVCSWRVSCVTWL 7.71
RINIFLRITFHNLLQLNRSG 6.04

Entry MSLGMCFKWRHRNIVYNLSA — recorded amyloid nucleation score = -0.408

Entry NPSFNESFLSGSQKVQILMG — recorded amyloid nucleation score = -0.509

Entry IKGGRQAYNPTLGEVRGCAR — recorded amyloid nucleation score = 2.93

Entry KSYLFESRKIGIVTNMGSYF — recorded amyloid nucleation score = -0.594

Entry SNYSPGFLCWALESSTNM — recorded amyloid nucleation score = -0.99

Entry SNEIQNII — recorded amyloid nucleation score = 0.57

Entry SWMSGVVITETHTALGSWVN — recorded amyloid nucleation score = 0.442

Entry IYCLRAGTKHSSLLGAKEDK — recorded amyloid nucleation score = 0.594

Entry FSCSSDCLIFVSHRNRVLLN — recorded amyloid nucleation score = -0.596

Entry FRYHRTSCQSHSVWRTFTSF — recorded amyloid nucleation score = -0.884

Entry TLTYYPFMRYAFTVSLWFLF — recorded amyloid nucleation score = -1.83

Entry MIVWWNYCGSAVPRKIL — recorded amyloid nucleation score = -0.586

Entry GWSITGSWFHNMAILLICFR — recorded amyloid nucleation score = 3.38

Entry LLIRYSGFFCAPALTIPCGS — recorded amyloid nucleation score = 5.12

Entry SWNMIQSTIFLPCNLGDYTV — recorded amyloid nucleation score = 5.68

Entry WYSIIREEAALSYCSSHYKN — recorded amyloid nucleation score = 2.49

Entry LLVGIGMFEEQFQLYHI — recorded amyloid nucleation score = -0.867

Entry RVLKFFYGLTRVVS — recorded amyloid nucleation score = 1.23

Entry NFLWPCRIHVQGCIHISDTD — recorded amyloid nucleation score = 6.17

Entry WWKQWRYTGYLLLSHLSNRS — recorded amyloid nucleation score = -0.087

Entry CAPFVRDFINMVCRRMPNTN — recorded amyloid nucleation score = 0.566

Entry KTCVPDYNNGWRFDFAYLD — recorded amyloid nucleation score = -0.795

Entry WELKAHVDV — recorded amyloid nucleation score = 0.737

Entry ANTFIPFFGISSVRSGRNAA — recorded amyloid nucleation score = 2.65
